# TARGET SYSTEM: Ribosomal protein S6 kinase beta-1 (Homo sapiens) (UniProt P23443)
# Sequence (P23443 whole entry, looked up): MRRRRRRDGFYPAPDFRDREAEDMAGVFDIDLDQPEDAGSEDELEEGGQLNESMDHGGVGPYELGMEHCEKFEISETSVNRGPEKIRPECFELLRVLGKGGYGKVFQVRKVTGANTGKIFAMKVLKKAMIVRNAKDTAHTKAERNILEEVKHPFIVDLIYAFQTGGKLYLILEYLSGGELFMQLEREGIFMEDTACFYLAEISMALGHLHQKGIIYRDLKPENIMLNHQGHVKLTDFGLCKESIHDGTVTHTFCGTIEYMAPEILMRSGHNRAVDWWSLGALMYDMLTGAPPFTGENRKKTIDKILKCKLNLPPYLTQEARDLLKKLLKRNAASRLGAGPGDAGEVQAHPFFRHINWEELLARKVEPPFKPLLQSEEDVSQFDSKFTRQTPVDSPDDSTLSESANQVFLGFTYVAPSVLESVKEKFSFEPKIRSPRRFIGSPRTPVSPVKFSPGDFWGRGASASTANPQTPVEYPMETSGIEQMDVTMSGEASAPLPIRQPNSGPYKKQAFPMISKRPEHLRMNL
# ASSAY CONTEXT: at 1 µM
In this section we review reported residual activity values for a set of compounds.
Quick reminder: number only, in %, skip the unit.

COc1cc2ncnc(Nc3ccc(Oc4ccccc4)cc3)c2cc1OC: 92
Cc1nc2cc3nc(-c4cccs4)cnc3cc2n1C: 98

Shifting focus to the compound that follows.
The value of residual activity measured for the compound CO[C@@H]1[C@H](N(C)C(=O)c2ccccc2)C[C@H]2O[C@]1(C)n1c3ccccc3c3c4c(c5c6ccccc6n2c5c31)C(=O)NC4 turned out to be 4

====

# TARGET SYSTEM: Tyrosine-protein kinase receptor TYRO3 (Homo sapiens) (UniProt Q06418)
# Sequence (Q06418 whole entry): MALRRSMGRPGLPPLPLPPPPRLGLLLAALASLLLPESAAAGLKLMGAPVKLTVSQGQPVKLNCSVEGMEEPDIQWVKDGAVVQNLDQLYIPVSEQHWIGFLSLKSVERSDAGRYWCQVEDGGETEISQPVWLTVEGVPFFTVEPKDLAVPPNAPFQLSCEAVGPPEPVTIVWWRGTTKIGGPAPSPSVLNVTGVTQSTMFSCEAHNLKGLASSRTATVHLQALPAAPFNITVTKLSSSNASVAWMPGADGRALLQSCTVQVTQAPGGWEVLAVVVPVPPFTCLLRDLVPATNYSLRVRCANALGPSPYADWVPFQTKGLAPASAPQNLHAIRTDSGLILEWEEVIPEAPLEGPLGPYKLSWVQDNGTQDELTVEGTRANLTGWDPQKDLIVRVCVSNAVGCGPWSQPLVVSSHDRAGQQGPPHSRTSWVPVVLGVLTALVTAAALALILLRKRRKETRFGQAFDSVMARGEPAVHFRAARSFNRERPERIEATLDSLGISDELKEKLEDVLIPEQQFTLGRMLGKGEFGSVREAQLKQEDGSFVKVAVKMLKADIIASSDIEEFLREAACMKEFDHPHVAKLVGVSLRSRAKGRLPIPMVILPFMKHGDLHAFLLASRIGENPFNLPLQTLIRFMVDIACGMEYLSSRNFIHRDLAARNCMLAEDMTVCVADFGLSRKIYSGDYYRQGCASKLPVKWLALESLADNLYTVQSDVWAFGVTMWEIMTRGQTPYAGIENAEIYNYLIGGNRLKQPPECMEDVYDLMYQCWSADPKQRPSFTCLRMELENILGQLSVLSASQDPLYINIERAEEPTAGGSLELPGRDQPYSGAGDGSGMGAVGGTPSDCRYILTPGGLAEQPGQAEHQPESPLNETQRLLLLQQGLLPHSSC
# ASSAY CONTEXT: at 1 µM
QUANTITY MEASURED: residual activity (%)
Quick reminder: number only, in %, skip the unit.

CO[C@H]1C[C@@H]2CC[C@@H](C)[C@@](O)(O2)C(=O)C(=O)N2CCCC[C@H]2C(=O)O[C@H]([C@H](C)C[C@@H]2CC[C@@H](O)[C@H](OC)C2)CC(=O)[C@H](C)/C=C(\C)[C@@H](O)[C@@H](OC)C(=O)[C@H](C)C[C@H](C)/C=C/C=C/C=C/1C: 94
Oc1ccc(-c2nc(-c3ccc(F)cc3)c(-c3ccncc3)[nH]2)cc1: 103
COc1cc2ncnc(N3CCN(C(=O)Nc4ccc(Oc5ccccc5)cc4)CC3)c2cc1OC: 97

The molecule NC(=O)c1ccc2[nH]c(-c3ccc(Oc4ccc(Cl)cc4)cc3)nc2c1 , tested on Tyrosine-protein kinase receptor TYRO3 (Homo sapiens) (UniProt Q06418), showed residual activity of 106

The molecule CC#CC(=O)Nc1cc2c(Nc3ccc(F)c(Cl)c3)ncnc2cn1 , tested on Tyrosine-protein kinase receptor TYRO3 (Homo sapiens) (UniProt Q06418), showed residual activity of 85

The molecule O=C(Nc1cccc(Nc2cc(Nc3cccc(C(F)(F)F)c3)ncn2)c1)C1CC1 , tested on Tyrosine-protein kinase receptor TYRO3 (Homo sapiens) (UniProt Q06418), showed residual activity of 88

meta.source: ChEMBL document CHEMBL2218924
